Target: T1, human ICOS (human, UniProt Q9Y6W8 21-199)
T1 construct: The cell that carries it is named under assay; also called huICOS; CD278
T1 sequence: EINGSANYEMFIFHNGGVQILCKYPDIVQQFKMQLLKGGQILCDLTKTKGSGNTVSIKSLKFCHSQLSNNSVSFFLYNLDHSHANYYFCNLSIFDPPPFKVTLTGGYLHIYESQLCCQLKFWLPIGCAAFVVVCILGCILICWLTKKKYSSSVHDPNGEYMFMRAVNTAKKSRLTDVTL
Experiment: flow cytometry, CHO cells expressing human ICOS
value-kind: Max (Log10(MFI))

{"columns": ["binder", "Max (Log10(MFI))"],
 "data": [
  ["Molecule 29 (ICOS H1143v2_1) (antibody, human IgG1, kappa, L234A L235A, V domains shown, Human IgG format) VH: EVQLLESGGGLVQPGGSLRLSCAASGFDFSSAYDMSWVRQAPGKGLEWVSVIYYGDGITYYADSVKGRFTISRDNSKNTLYLQMNSLRAEDTAVYFCARGAFLGSSYYLSLWGQGTLVTVSS VL: DIQMTQSPSSLSASVGDRVTITCRASENIYNWLAWYQQKPGKAPKLLIYDASKLASGVPSRFSGSGSGTDFTLTISSLQPEDFATYYCQQAYTYGNIDNAFGGGTKVEIKR", "2.38 Log10(MFI)"],
  ["Molecule 32 (ICOS 1138) (antibody, human IgG1, kappa, L234A L235A, V domains shown, Human IgG format; also called parental antibody of Molecules 33-35) VH: QSLEESGGDLVKPGASLTLTCTASGFDLSSYYYMSWVRQAPGKGLEWIASIYADIYGGTTHYASWAKGRFTISKTSSTTVTLQMTSLTAADTATYFCAREDGSRYGGSGYYNLWGPGTLVTVSS VL: ALVMTQTPSSVSAAVGGTVTINCQASQNIYSNLAWYQQKPGQPPKLLIYAASYLTSGVSSRFKGSGAGTQFTLTISGVESADAATYYCQQGHTTDNIDNAFGGGTEVVVKR", "4.3 Log10(MFI)"]
]}

// query Please give the measured Max (Log10(MFI)) for this binder: Molecule 31 (ICOS H1143v2_3) (antibody, human IgG1, kappa, L234A L235A, V domains shown, Human IgG format) VH: EVQLLESGGGLVQPGGSLRLSCAASGFDFSSAYDMSWVRQAPGKGLEWIGVIYYGDGITYYADSVKGRFTISRDNSNTLYLQMNSLRAEDTAVYFCARGAFLGSSYYLSLWGQGTLVTVSS VL: DIQMTQSPSSLSASVGDRVTITCRASENIYNWLAWYQQKPGKAPKLLIYDASKLASGVPSRFSGSGSGTDFTLTISSLQPEDFATYYCQQAYTYGNIDNAFGGGTKVEIKR
// result 4.44 Log10(MFI)
